test system: NRG-mice bearing LNCaP tumors; assay: Biodistribution (and PET/SPECT imaging) in NRG-mice bearing LNCaP tumors; assay type: in vivo; settings: 24 h p.i., Avg
*1 amine or outer side, *2 acyl side, *3 side chain or, on linkers, in order; H or OH if unused. Where a SMILES comes first, the peptide text is derived from it. [ ]: non-standard residue; d: D form. The star is where a group is joined. ξ: configuration not given here. ξLys(Nα-CO-ξAad) = O=C(O)CCCC(NC(=O)NC(CCCCN*)C(=O)O)C(=O)O; Butanoyl(4-(4-NO2Ph)) = O=C(CCCc1ccc([N+](=O)[O-])cc1)*; DOTA = O=C(O)CN1CCN(CC(=O)O)CCN(CC(=O)*)CCN(CC(=O)O)CC1; ξAla(9-anthryl) = NC(Cc1c2ccccc2cc2ccccc12)C(=O)O; X1 = O=C(C1CCC(CN[*:1])CC1)[*:2]; ξK = NCCCCC(N)C(=O)O
MEASURED_PARAMETER: Biodistribution: Muscle (% ID/g)
Answers are plain numbers, in % ID/g.

Field Biodistribution: Muscle (entry O=C([O-])CN1CCN(CC(=O)[O-])CCN(CC(=O)NCCCCC(NC(=O)CNC(=O)CCCc2ccc([N+](=O)[O-])cc2)C(=O)NCC(=O)NCC2CCC(C(=O)NC(Cc3c4ccccc4cc4ccccc34)C(=O)NCCCCC(NC(=O)NC(CCCC(=O)O)C(=O)O)C(=O)O)CC2)CCN(CC(=O)[O-])CC1.[225Ac+3] (stereo not shown) [^225Ac-CCZ02017] ({Butanoyl(4-(4-NO2Ph))}-G[ξK](DOTA)G[X1][ξAla(9-anthryl)]-{ξLys(Nα-CO-ξAad)}) ) reads 0.06
